Values were extracted from paper PMC10786891.

# pKd per entry
Molecular target: T1, EsCas13d, nuclease-dead (Eubacterium siraeum, UniProt B0MS50, R295A;H300A;R849A;H854A)
T1 sequence: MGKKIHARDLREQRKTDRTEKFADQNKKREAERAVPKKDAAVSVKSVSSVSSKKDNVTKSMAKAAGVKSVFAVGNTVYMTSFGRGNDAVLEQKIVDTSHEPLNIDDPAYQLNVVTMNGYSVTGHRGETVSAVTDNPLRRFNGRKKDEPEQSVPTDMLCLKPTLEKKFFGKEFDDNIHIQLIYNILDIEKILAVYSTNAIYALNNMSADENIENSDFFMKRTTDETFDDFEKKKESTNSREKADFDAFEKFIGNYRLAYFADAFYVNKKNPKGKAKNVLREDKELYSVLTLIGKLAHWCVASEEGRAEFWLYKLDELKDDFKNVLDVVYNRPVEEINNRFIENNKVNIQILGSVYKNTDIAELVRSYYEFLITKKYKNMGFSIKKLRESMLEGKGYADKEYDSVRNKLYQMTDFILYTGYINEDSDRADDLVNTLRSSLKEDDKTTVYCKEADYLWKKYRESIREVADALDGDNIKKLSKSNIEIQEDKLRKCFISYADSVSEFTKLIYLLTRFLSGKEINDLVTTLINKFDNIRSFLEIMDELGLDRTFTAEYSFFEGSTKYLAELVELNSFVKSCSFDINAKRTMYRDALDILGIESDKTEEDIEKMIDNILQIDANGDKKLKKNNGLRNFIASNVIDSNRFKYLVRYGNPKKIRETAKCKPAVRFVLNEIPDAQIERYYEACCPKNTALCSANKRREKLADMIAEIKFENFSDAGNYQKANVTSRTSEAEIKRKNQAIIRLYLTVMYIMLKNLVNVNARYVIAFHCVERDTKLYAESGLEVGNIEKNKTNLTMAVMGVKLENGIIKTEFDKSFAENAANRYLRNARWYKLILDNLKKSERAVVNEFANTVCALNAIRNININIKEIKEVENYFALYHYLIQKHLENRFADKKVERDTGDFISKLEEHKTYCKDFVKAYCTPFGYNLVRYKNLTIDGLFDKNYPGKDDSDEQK
Assay: crRNA (strand 1, pre-loaded); Mg2+; 40 mM Tris-HCl pH 7.5, 150 mM NaCl, 6 mM MgCl2, 1 mM DTT, 0.1% Tween-20, 0.2 mg/ml BSA; 25 C; 10 min per concentration, then washed
Settings: tags: His6-TwinStrep-SUMO cleaved; N-terminal SNAP kept (SNAP-Surface 488); label: 3' end held by stalled T7 RNA polymerase
pKd: −log10 of the molar value.

binder | pKd
target 1 MT 5'PFS AAU 3'PFS ACG (mixed) RNA 1: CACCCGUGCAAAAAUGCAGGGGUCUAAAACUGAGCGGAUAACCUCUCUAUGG RNA 2: GGGAAUGGAUCCACAUCUACGAAUUCAAUCCAUAGAGAGGUUAUCCGCUCAACGAGAUCGGAAGAGCACACGU | 7.33
target 1 MT 5'PFS GGA 3'PFS CCG (mixed) RNA 1: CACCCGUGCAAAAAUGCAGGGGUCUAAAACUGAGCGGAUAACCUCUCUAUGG RNA 2: GGGAAUGGAUCCACAUCUACGAAUUCGGACCAUAGAGAGGUUAUCCGCUCACCGAGAUCGGAAGAGCACACGU | 7.55
